Values compiled from ChEMBL document CHEMBL3988442.

- Target of assay: Shiga toxin 2 (Escherichia coli O157:H7) (UniProt P09385+P09386)
- Test name: E. coli 0.157:H7 Shiga Toxin SOP - stx2 screening assay
- Type: functional
- Design: scale not given: direction of the effect not stated beside the values
- Applied conditions: 30 µM
Note to self: values exactly at -20% are true (1). So Percent Effect at or above -20% is true (1), below is false (0).

For orientation, consider the following solved cases.
Cc1cc(C)n(CCCNC(=O)[C@@H](C)NC(=O)OC(C)(C)C)n1 = true (1)
CCS(=O)(=O)N1CCCc2ccc(NC(=O)Cc3ccc(F)cc3)cc21 = true (1)

Ask: Check this compound for Percent Effect at or above -20%: "O=C(COc1coc(CN2CCCCC2)cc1=O)Nc1ccc(Cl)cc1"
Reply: false (0)

Ask: Check this compound for Percent Effect at or above -20%: "COCCCN(CCOC)C(=O)Nc1ccc(C)cc1C"
Reply: true (1)

Ask: Check this compound for Percent Effect at or above -20%: "O=C(c1cnco1)N1C[C@@H]2CC[C@H](Oc3ccccc3F)[C@@H]2C1"
Reply: false (0)

Ask: Check this compound for Percent Effect at or above -20%: "CCOc1ncccc1NC(=O)N1CCCCCC1"
Reply: true (1)

Ask: Check this compound for Percent Effect at or above -20%: "CCn1c(CN(C)C)nnc1C1CCN(Cc2ccccc2)CC1"
Reply: false (0)

Ask: Check this compound for Percent Effect at or above -20%: CCOCC1CN(S(C)(=O)=O)Cc2ncn(CC3CC3)c21 (stereo unspecified)
Reply: true (1)

Ask: Check this compound for Percent Effect at or above -20%: "O=C(c1cscn1)N1CCN2C[C@H](OCc3cccnc3)C[C@H]2C1"
Reply: false (0)

Ask: Check this compound for Percent Effect at or above -20%: CN(c1ccncn1)C1CC2(CCN(C(=O)CCc3cccs3)C2)C1 (stereo unspecified)
Reply: false (0)

Ask: Check this compound for Percent Effect at or above -20%: CSc1ccc(C(CN)N2CCc3sccc3C2)cc1 (stereo unspecified)
Reply: false (0)
